# assay: Phase 1 plasma pharmacokinetics
# Type: in vivo, human
# measurement-setup: human, plasma, oral, 80 mg, AUC0-∞, Mean ± SD, abexinostat continuous administration (BID, 4-h interval) on C1D7, 80 mg (n = 4)
experimental-endpoint: AUC(0-inf) (ng·h/mL)

- CN(C)Cc1c(C(=O)NCCOc2ccc(C(=O)NO)cc2)oc2ccccc12: 744

---

# assay: Phase 1 plasma pharmacokinetics
# Assay type: in vivo, human
# measurement-setup: human, plasma, oral, 60 mg, Cmax, Mean ± SD, abexinostat continuous administration (BID, 4-h interval) on C1D7, 60 mg (n = 3)
experimental-endpoint: Cmax (ng/mL)

• CN(C)Cc1c(C(=O)NCCOc2ccc(C(=O)NO)cc2)oc2ccccc12 [abexinostat, Abexinostat] = 104

Origin of measurements: paper PMC12123727
